# test system: UniProt:Q9GZR1
# Sequence (Q9GZR1 whole entry): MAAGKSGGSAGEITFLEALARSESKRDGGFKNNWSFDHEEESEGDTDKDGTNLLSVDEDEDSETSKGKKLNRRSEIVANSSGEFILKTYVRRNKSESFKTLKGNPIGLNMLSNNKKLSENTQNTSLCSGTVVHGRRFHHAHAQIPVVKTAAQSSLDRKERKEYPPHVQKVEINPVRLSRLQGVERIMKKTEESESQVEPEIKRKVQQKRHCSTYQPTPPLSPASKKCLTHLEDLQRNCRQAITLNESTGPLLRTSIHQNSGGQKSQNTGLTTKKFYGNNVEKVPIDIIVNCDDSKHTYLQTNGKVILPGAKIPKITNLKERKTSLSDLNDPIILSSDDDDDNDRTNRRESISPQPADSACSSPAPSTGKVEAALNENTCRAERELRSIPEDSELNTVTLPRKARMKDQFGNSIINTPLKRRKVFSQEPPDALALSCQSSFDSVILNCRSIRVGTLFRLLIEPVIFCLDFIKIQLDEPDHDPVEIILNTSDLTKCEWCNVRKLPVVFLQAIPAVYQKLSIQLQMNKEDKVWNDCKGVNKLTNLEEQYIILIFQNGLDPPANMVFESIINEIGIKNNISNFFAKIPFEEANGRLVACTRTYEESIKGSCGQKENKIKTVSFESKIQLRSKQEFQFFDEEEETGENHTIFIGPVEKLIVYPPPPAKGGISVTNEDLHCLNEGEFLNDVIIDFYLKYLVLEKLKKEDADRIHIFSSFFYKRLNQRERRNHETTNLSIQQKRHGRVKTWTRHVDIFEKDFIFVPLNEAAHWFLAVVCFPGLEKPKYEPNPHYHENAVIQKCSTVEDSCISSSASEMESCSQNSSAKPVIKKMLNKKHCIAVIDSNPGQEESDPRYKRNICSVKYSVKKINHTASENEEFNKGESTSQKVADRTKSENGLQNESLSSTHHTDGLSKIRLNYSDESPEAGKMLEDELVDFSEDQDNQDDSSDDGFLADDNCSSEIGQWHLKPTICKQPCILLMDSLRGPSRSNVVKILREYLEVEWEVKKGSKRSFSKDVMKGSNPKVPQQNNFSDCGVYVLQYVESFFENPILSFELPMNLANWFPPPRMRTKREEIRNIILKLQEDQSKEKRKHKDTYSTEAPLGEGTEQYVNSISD
# Type: functional
Calls of active or inactive are those of the source.
Give your call using only these classes: 1 for active, 0 for inactive

INSERT INTO assay_data (smiles_entry, category_label) VALUES
  ('CCOC(=O)c1ccc(Nc2cnc3ccccc3n2)cc1', 0),
  ('CC(=O)c1cccc2c1N=C(c1[nH]c3ccccc3c1O)C2=O', 1),
  ('CCCC[n+]1ccn(C2=C([N-]S(=O)(=O)c3ccc(Cl)cc3)C(=O)c3ccccc3C2=O)c1', 1);

Then this molecule:
Which outcome was assigned to O=[N+]([O-])c1ccc(N/N=N/c2ccccc2)cc1 in this test?
1

---

# assay procedure: cells
# Format: functional
The source made the active and inactive calls.
readout label: IC50

As a guide, the following entries are already answered.
INSERT INTO measurements (compound, readout_label, observed_measurement) VALUES
  ('CCOC(=O)COc1ccc(C(=O)NC2CCCCC2)cc1', 'IC50', '7.69 µM (active)'),
  ('CCC(CC)COC(=O)C(C#N)c1nc2ccccc2nc1N1CCN(CC)CC1 (centres undefined)', 'IC50', '17.9 µM (active)'),
  ('Cc1cc(Cl)cc(C)c1OCCCCn1ccnc1', 'IC50', '15.5 µM (active)');

Field: next compound
# IC50 lookup, item CC(C)OC(=O)CCCCCN1C(=O)CSC1=S
6.29 µM (active)
